B1: PhoQ; a variant is named by its letters at X, in order, P23837 (parent)
chain: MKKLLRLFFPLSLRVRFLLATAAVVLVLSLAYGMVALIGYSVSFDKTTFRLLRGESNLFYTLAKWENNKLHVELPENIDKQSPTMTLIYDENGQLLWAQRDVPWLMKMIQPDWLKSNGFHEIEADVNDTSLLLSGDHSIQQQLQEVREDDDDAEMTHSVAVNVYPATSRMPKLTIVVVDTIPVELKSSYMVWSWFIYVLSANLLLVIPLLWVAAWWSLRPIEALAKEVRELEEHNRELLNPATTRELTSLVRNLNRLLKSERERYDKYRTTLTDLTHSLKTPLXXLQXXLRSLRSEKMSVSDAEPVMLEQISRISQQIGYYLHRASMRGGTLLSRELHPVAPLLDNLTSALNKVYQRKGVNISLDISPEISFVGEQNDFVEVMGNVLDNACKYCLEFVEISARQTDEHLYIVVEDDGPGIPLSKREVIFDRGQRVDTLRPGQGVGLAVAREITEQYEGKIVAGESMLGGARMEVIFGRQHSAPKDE

# Variants of: B1
# test-summary: enrichment ratio after two sorts for PhoP signalling (ratio (wild type AVST 3.29)); higher = more functional
# run-parameters: with PhoP (E. coli)
Over roughly 140,000 sequences, “enrichment ratio after two sorts for PhoP signalling” has its median near 0; the highest 2% begin near 11. Many of the other results were omitted from the sample, so the highest values are more common in it than they were.
Below, each of the variants is paired with its reported enrichment ratio value.

- variant-name: "MDAD"
  enrichment ratio: "≤ 0.25"
- variant-name: "TQYD"
  enrichment ratio: 3.43
- variant-name: "DVFV"
  enrichment ratio: "≤ 0.25"
- variant-name: "SLQM"
  enrichment ratio: 7.14
- variant-name: "TYCA"
  enrichment ratio: 12.1
- variant-name: "QGQK"
  enrichment ratio: "≤ 0.25"
- variant-name: "DPYV"
  enrichment ratio: 2.59
- variant-name: "SQNC"
  enrichment ratio: "≤ 0.25"
- variant-name: "NEMD"
  enrichment ratio: "≤ 0.25"
- variant-name: "RTKT"
  enrichment ratio: "≤ 0.25"
- variant-name: "THMV"
  enrichment ratio: 8.19
- variant-name: "ELNQ"
  enrichment ratio: "≤ 0.25"
- variant-name: "NHMV"
  enrichment ratio: "≤ 0.25"
- variant-name: "NYIP"
  enrichment ratio: "≤ 0.25"
- variant-name: "IKSW"
  enrichment ratio: "≤ 0.25"
- variant-name: "NHMI"
  enrichment ratio: "≤ 0.25"
- variant-name: "TALS"
  enrichment ratio: 10.9
- variant-name: "PAWP"
  enrichment ratio: "≤ 0.25"
- variant-name: "GKDT"
  enrichment ratio: "≤ 0.25"
- variant-name: "TQYQ"
  enrichment ratio: 27.1
- variant-name: "DKAP"
  enrichment ratio: "≤ 0.25"
- variant-name: "TYVG"
  enrichment ratio: 0.756
- variant-name: "KALC"
  enrichment ratio: "≤ 0.25"
- variant-name: "HGGE"
  enrichment ratio: "≤ 0.25"
- variant-name: "SKNN"
  enrichment ratio: "≤ 0.25"
- variant-name: "DEAP"
  enrichment ratio: "≤ 0.25"
- variant-name: "RHIC"
  enrichment ratio: 0.278
- variant-name: "FDKV"
  enrichment ratio: "≤ 0.25"
- variant-name: "TALC"
  enrichment ratio: 20.9
- variant-name: "FRMF"
  enrichment ratio: "≤ 0.25"
- variant-name: "NSHF"
  enrichment ratio: "≤ 0.25"
- variant-name: "NEMS"
  enrichment ratio: "≤ 0.25"
- variant-name: "HIPQ"
  enrichment ratio: "≤ 0.25"
- variant-name: "EAES"
  enrichment ratio: "≤ 0.25"
- variant-name: "THMI"
  enrichment ratio: 26.1
- variant-name: "HTDV"
  enrichment ratio: "≤ 0.25"
- variant-name: "NEMV"
  enrichment ratio: 14.8
- variant-name: "TYCI"
  enrichment ratio: "≤ 0.25"
- variant-name: "HYKI"
  enrichment ratio: "≤ 0.25"
- variant-name: "HTRD"
  enrichment ratio: "≤ 0.25"
- variant-name: "DKNN"
  enrichment ratio: "≤ 0.25"
- variant-name: "WDVW"
  enrichment ratio: "≤ 0.25"
- variant-name: "QIFT"
  enrichment ratio: "≤ 0.25"
- variant-name: "EALN"
  enrichment ratio: "≤ 0.25"
- variant-name: "IQYQ"
  enrichment ratio: "≤ 0.25"
- variant-name: "GPMM"
  enrichment ratio: "≤ 0.25"
